- target-desc: HLA-B*44:03
- assay-comment: IEDB peptide-MHC binding, purified MHC/competitive/radioactivity; bounds were set here for any values at or beyond the usual limits of such assays
- condition-context: source organism: Bordetella pertussis
pIC50: −log10 of the molar value.

monomer-sequence | relation-symbol | pIC50
SEAMAAWSE | = | 5.12
IENTAKLSG | = | 4.35
AAMQGAVVH | ≤ | 4.11

* * *

- target-desc: HLA-B*07:02
- assay-comment: IEDB peptide-MHC binding, purified MHC/competitive/radioactivity; bounds were set here for any values at or beyond the usual limits of such assays
- condition-context: source organism: Bordetella pertussis
pIC50: −log10 of the molar value.
value-kind: pIC50

monomer-sequence | target-desc | value-kind | assay-result
RVTVSGGSL | HLA-B*07:02 | pIC50 | 4.84
SPQPIRATV | HLA-B*07:02 | pIC50 | 6.83
